System tested: Arginase (ARG1 enzyme) (Homo sapiens)
Sequence (P05089 whole entry): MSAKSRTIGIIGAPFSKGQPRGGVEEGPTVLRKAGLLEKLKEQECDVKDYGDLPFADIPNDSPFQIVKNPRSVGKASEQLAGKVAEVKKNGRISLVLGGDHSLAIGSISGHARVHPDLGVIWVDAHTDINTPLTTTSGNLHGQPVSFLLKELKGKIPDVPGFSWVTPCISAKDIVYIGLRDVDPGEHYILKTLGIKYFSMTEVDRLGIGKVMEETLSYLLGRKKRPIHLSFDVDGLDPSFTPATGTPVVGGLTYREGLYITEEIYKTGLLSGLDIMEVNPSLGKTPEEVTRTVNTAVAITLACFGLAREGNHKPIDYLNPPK
# note: exactly 400 nM is not below, so it is FALSE; use TRUE for IC50 strictly under it

INSERT INTO measurements (compound, category_label) VALUES
  ('C[C@]1(C(=O)O)NCC[C@H]1CCCB(O)O [Example 16A]', 'TRUE'),
  ('CN[C@H]1CN[C@H](C(=O)O)[C@@H]1CCCB(O)O', 'TRUE'),
  ('N[C@@]1(C(=O)O)CNC[C@@]1(CO)CCCB(O)O [Example 94C]', 'FALSE'),
  ('NC[C@H]1C[C@H](CCCB(O)O)[C@H](C(=O)O)N1 [Example 60B]', 'FALSE'),
  ('CC[C@H](C)[C@H](N)C(=O)N[C@H]1CN[C@H](C(=O)O)[C@@H]1CCCB(O)O', 'TRUE'),
  ('C[C@@]1(C(=O)O)NCC[C@H]1CCCB(O)O [Example 16C]', 'FALSE'),
  ('O=C(O)C1CNCC1CCCB(O)O (single isomer, unassigned) [Example 21B]', 'FALSE'),
  ('O=C(O)[C@H]1NC[C@H](O)[C@@]1(F)CCCB(O)O [Example 92B]', 'TRUE'),
  ('O=C(O)C1CC(CCB(O)O)CCN1 (stereo not shown)', 'FALSE'),
  ('O=C(O)[C@H]1NC[C@@H](O)[C@]1(F)CCCB(O)O [Example 92C]', 'FALSE'),
  ('O=C(O)C1(CCN2CCCCC2)NCCC1CCCB(O)O (stereo not shown)', 'TRUE'),
  ('CC1(C)[C@H]2C[C@@H]3OB(CCC[C@]4(C)CCN[C@@H]4C(=O)O)O[C@]3(C)[C@@H]1C2', 'TRUE'),
  ('CN1C[C@@](CO)(CCCB(O)O)[C@H]1C(=O)O', 'TRUE'),
  ('O=C(O)[C@H]1NC[C@@H](O)[C@@]1(F)CCCB(O)O [Example 92A]', 'FALSE'),
  ('CN(C)C[C@@H]1C[C@@H](CCCB(O)O)[C@@H](C(=O)O)N1', 'FALSE'),
  ('C[C@]1(CCCB(O)O)[C@@H](C(=O)O)NC[C@@H]1N', 'TRUE'),
  ('NC1CN[C@H](C(=O)O)C1CCCB(O)O (single isomer, unassigned) [Example 33B]', 'FALSE'),
  ('O=C(O)C1CNCC1CCCB(O)O (single isomer, unassigned) [Example 21D]', 'FALSE'),
  ('O=C(O)[C@H]1NCC[C@@H]1CCCB(O)O [Example 15B]', 'FALSE'),
  ('O=C(O)C1NCCCC1OCCB(O)O (stereo not shown)', 'FALSE'),
  ('O=C(O)[C@H]1NCCC[C@H]1CCCB(O)O (single isomer, unassigned)', 'TRUE'),
  ('O=C(O)[C@]1(CO)NCC[C@H]1CCCB(O)O (single isomer, unassigned) [Example 59B]', 'TRUE'),
  ('C[C@@]1(CCCB(O)O)CCN[C@]1(C)C(=O)O', 'TRUE'),
  ('C[C@H]1N[C@H](C(=O)O)[C@](C)(CCCB(O)O)[C@@H]1O [Example 74B]', 'FALSE'),
  ('O=C(O)[C@H]1NC[C@@H](O)[C@H]1CCCB(O)O [Example 20B]', 'FALSE');
